System: VA-ES-BJ
procedure-details: relative viability vs DMSO control (72 h) (fraction); higher = more viable cells
run-conditions: 3.333 µM
measure-name: relative viability

Would you please look over these solved cases?
| smiles-record | measure-name | result |
| --- | --- | --- |
| CCN(CCCOc1ccc2c(Nc3cc(CC(=O)Nc4cccc(F)c4)[nH]n3)ncnc2c1)CCOP(=O)(O)O | relative viability | 0.68 |
| CC[C@@H]1C(=O)N(C)c2cnc(Nc3ccc(C(=O)N[C@H]4CC[C@H](N5CCN(CC6CC6)CC5)CC4)cc3OC)nc2N1C(C)C | relative viability | 0.074 |
| C=CC(=O)Nc1cccc(Nc2nc(Nc3ccc(N4CCN(C(C)=O)CC4)cc3OC)ncc2C(F)(F)F)c1 | relative viability | 0.648 |

# ---- query molecule ----
Enquiry: # return relative viability of CO[C@H]1C[C@@H]2CC[C@@H](C)[C@@](O)(O2)C(=O)C(=O)N2CCCC[C@H]2C(=O)O[C@H]([C@H](C)C[C@@H]2CC[C@@H](O)[C@H](OC)C2)CC(=O)[C@H](C)/C=C(\C)[C@@H](O)[C@@H](OC)C(=O)[C@H](C)C[C@H](C)/C=C/C=C/C=C/1C (system: VA-ES-BJ)
Return: 0.446

###

Tested on: KHOS-NP
procedure-details: relative viability vs DMSO control (72 h) (fraction); higher = more viable cells
run-conditions: 0.00457 µM
Catalogue of compounds with associated relative viability

| smiles-record | relative viability |
| --- | --- |
| COc1cc2ncnc(Nc3ccc(F)c(Cl)c3)c2cc1NC(=O)/C=C/CN1CCCCC1 | 1.09 |
| N#CCC1(n2cc(-c3ncnc4[nH]ccc34)cn2)CN(C2CCN(C(=O)c3ccnc(C(F)(F)F)c3F)CC2)C1 | 1.07 |
| COc1cc2nccc(Oc3ccc(NC(=O)NC4CC4)c(Cl)c3)c2cc1C(N)=O | 1.07 |

# ---- query compound ----
Enquiry: Please report the measured relative viability for FC(F)(F)c1ccc(CNc2ccc(Cc3c[nH]c4ncc(Cl)cc34)cn2)cn1
Return: 1.08

###

System: HS729
procedure-details: relative viability vs DMSO control (72 h) (fraction); higher = more viable cells
run-conditions: 0.04115 µM
Catalogue of compounds with associated relative viability
Lab note: jot the number down without any unit.

Would you please look over these solved cases?
| smiles-record | relative viability |
| --- | --- |
| CN1CCN(CCOc2cc(OC3CCOCC3)c3c(Nc4c(Cl)ccc5c4OCO5)ncnc3c2)CC1 | 0.867 |
| CO[C@H]1C[C@@H]2CC[C@@H](C)[C@@](O)(O2)C(=O)C(=O)N2CCCC[C@H]2C(=O)O[C@H]([C@H](C)C[C@@H]2CC[C@@H](O)[C@H](OC)C2)CC(=O)[C@H](C)/C=C(\C)[C@@H](O)[C@@H](OC)C(=O)[C@H](C)C[C@H](C)/C=C/C=C/C=C/1C | 0.926 |

Enquiry: # return relative viability of CN(C)C[C@@H]1CCn2cc(c3ccccc32)C2=C(C(=O)NC2=O)c2cn(c3ccccc23)CCO1 (system: HS729)
Return: 0.939

Enquiry: # return relative viability of C[C@@H]1COC(Nc2ccc3ncnc(Nc4ccc(OCc5nccs5)c(Cl)c4)c3c2)=N1 (system: HS729)
Return: 1.05

Enquiry: # return relative viability of Cc1cn(-c2cc(NC(=O)c3ccc(C)c(Nc4nccc(-c5cnccn5)n4)c3)cc(C(F)(F)F)c2)cn1 (system: HS729)
Return: 0.99

###

Catalogue of compounds with associated relative viability
System: SW982
procedure-details: relative viability vs DMSO control (72 h) (fraction); higher = more viable cells
run-conditions: 0.1235 µM
Lab note: jot the number down without any unit.

Would you please look over these solved cases?
| compound | relative viability |
| --- | --- |
| C[C@H]1Oc2cc(cnc2N)-c2c(nn(C)c2C#N)CN(C)C(=O)c2ccc(F)cc21 [Lorlatinib] | 0.895 |
| Cc1nc(Nc2ncc(C(=O)Nc3c(C)cccc3Cl)s2)cc(N2CCN(CCO)CC2)n1 [Dasatinib] | 0.389 |
| COc1cc2ncnc(Nc3ccc(F)c(Cl)c3)c2cc1NC(=O)/C=C/CN1CCCCC1 [Dacomitinib] | 1.04 |
| CCCS(=O)(=O)N[C@H]1C[C@@H](N(C)c2ncnc3[nH]ccc23)C1 [Abrocitinib] | 1.07 |
| Cc1cc(Nc2ncc(Cl)c(Nc3ccccc3S(=O)(=O)C(C)C)n2)c(OC(C)C)cc1C1CCNCC1 [Ceritinib] | 0.902 |
| NC(=O)c1cccc2cn(-c3ccc([C@@H]4CCCNC4)cc3)nc12 [Niraparib] | 1.06 |
| CNC(=O)c1cc(Oc2ccc(NC(=O)Nc3ccc(Cl)c(C(F)(F)F)c3)cc2)ccn1 [Sorafenib] | 1.07 |
| COc1cc2ncnc(Nc3cccc(Cl)c3F)c2cc1OC(=O)N1CCN(C)C[C@H]1C [AZD-3759] | 1.07 |

# ---- query compound ----
Enquiry: Please report the measured relative viability for COc1cc2c(Oc3ccc4[nH]c(C)cc4c3F)ccnc2cc1OCC1(N)CC1 [Anlotinib]
Return: 1.05

###

Tested on: HT1080
procedure-details: relative viability vs DMSO control (72 h) (fraction); higher = more viable cells
run-conditions: 0.1235 µM
Catalogue of compounds with associated relative viability
Lab note: jot the number down without any unit.

Would you please look over these solved cases?
| compound | relative viability |
| --- | --- |
| C[C@H]1Oc2cc(cnc2N)-c2c(nn(C)c2C#N)CN(C)C(=O)c2ccc(F)cc21 [Lorlatinib] | 1.07 |
| CNC(=O)c1cc(Oc2ccc(NC(=O)Nc3ccc(Cl)c(C(F)(F)F)c3)cc2)ccn1 [Sorafenib] | 1.08 |
| NC(=O)c1cnc2[nH]ccc2c1N[C@@H]1[C@@H]2CC3C[C@H]1C[C@@](O)(C3)C2 [Peficitinib] | 1.06 |
| Cc1c(F)cc(C(=O)NC2CC2)cc1-c1ccc(C(=O)NCC(C)(C)C)cn1 [Losmapimod] | 1.16 |

Enquiry: # return relative viability of CCN(c1cc(-c2ccc(CN3CCOCC3)cc2)cc(C(=O)NCc2c(C)cc(C)[nH]c2=O)c1C)C1CCOCC1 [Tazemetostat] (system: HT1080)
Return: 1.09

Enquiry: # return relative viability of Cc1ccc(C(=O)OCc2ccc([C@@H](CN)C(=O)Nc3ccc4cnccc4c3)cc2)c(C)c1 [Netarsudil] (system: HT1080)
Return: 1.03

Enquiry: # return relative viability of COc1cc(Nc2c(C#N)cnc3cc(OCCCN4CCN(C)CC4)c(OC)cc23)c(Cl)cc1Cl [Bosutinib] (system: HT1080)
Return: 1.14

Enquiry: # return relative viability of C=CC(=O)Nc1cccc(Nc2nc(Nc3ccc(N4CCN(C(C)=O)CC4)cc3OC)ncc2C(F)(F)F)c1 [Rociletinib] (system: HT1080)
Return: 1.06

###

System: SYO-1
procedure-details: relative viability vs DMSO control (72 h) (fraction); higher = more viable cells
run-conditions: 0.00457 µM
Catalogue of compounds with associated relative viability
Lab note: jot the number down without any unit.

Would you please look over these solved cases?
| compound | numeric-readout |
| --- | --- |
| Cc1cccc(-c2[nH]c(CNc3ccccc3F)nc2-c2ccc3ncnn3c2)n1 [Vactosertib] | 0.895 |
| Cc1cc(Nc2ncc(Cl)c(Nc3ccccc3S(=O)(=O)C(C)C)n2)c(OC(C)C)cc1C1CCNCC1 [Ceritinib] | 1.07 |
| COc1cc2ncnc(Nc3ccc(F)c(Cl)c3)c2cc1NC(=O)/C=C/CN1CCCCC1 [Dacomitinib] | 1.02 |
| FC(F)(F)c1ccc(CNc2ccc(Cc3c[nH]c4ncc(Cl)cc34)cn2)cn1 [Pexidartinib] | 0.94 |

# ---- query compound ----
Enquiry: # return relative viability of CNC(=O)c1cc(Oc2ccc(NC(=O)Nc3ccc(Cl)c(C(F)(F)F)c3)cc2)ccn1 [Sorafenib] (system: SYO-1)
Return: 0.95

###

Catalogue of compounds with associated relative viability
Tested on: A204
procedure-details: relative viability vs DMSO control (72 h) (fraction); higher = more viable cells
run-conditions: 0.3704 µM
Lab note: jot the number down without any unit.

Would you please look over these solved cases?
| compound | test-system | relative viability |
| --- | --- | --- |
| C1=N/C2=N/c3ccc(OCCN4CCCC4)c(c3)COC/C=C/COCc3cccc(c3)C(=C1)N2 [Pacritinib] | A204 | 0.654 |
| FC(F)(F)c1ccc(CNc2ccc(Cc3c[nH]c4ncc(Cl)cc34)cn2)cn1 [Pexidartinib] | A204 | 0.898 |
| COc1cc2ncnc(Nc3ccc(F)c(Cl)c3)c2cc1NC(=O)/C=C/CN1CCCCC1 [Dacomitinib] | A204 | 0.978 |
| COc1cc2nccc(Oc3ccc(NC(=O)NC4CC4)c(Cl)c3)c2cc1C(N)=O [Lenvatinib] | A204 | 0.345 |
| C=CC(=O)Nc1cc(Nc2nccc(-c3cn(C)c4ccccc34)n2)c(OC)cc1N(C)CCN(C)C [Osimertinib] | A204 | 0.907 |
| CNC(=O)c1cc(Oc2ccc(NC(=O)Nc3ccc(Cl)c(C(F)(F)F)c3)cc2)ccn1 [Sorafenib] | A204 | 0.567 |
| COc1cc2nccc(Oc3ccc(NC(=O)C4(C(=O)Nc5ccc(F)cc5)CC4)cc3)c2cc1OC [Cabozantinib] | A204 | 0.378 |

# ---- query compound ----
Enquiry: Please report the measured relative viability for N#CCC1(n2cc(-c3ncnc4[nH]ccc34)cn2)CN(C2CCN(C(=O)c3ccnc(C(F)(F)F)c3F)CC2)C1 [Itacitinib]
Return: 0.959
